// compounds with reported IC50 on Somatostatin receptor type 1 (Homo sapiens, UniProt P30872), multi-publication
Sequence (P30872 whole entry): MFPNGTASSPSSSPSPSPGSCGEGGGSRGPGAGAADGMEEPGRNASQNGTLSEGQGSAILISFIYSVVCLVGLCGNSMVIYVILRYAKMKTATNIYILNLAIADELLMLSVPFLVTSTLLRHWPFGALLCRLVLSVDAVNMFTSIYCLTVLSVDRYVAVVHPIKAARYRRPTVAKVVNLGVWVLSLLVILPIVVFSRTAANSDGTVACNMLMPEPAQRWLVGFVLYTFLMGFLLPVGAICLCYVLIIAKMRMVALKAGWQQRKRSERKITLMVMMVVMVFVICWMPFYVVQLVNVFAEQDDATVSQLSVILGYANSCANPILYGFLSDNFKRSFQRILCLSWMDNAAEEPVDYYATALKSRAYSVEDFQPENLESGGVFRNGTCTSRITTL
value-kind: IC50 (µM)

CC(C)NCc1ccc(C[C@@H]2NC(=O)[C@@H](Cc3ccc4ccccc4c3)NC(=O)[C@H](Cc3ccccc3)NC(=O)[C@H](Cc3ccccc3)NC(=O)[C@H](CCCCN)NC(=O)[C@H](NC(=O)CCc3ccc(O)cc3)CSSC[C@@H](C(=O)O)NC(=O)[C@H](CO)NC(=O)[C@H]([C@@H](C)O)NC(=O)[C@H](Cc3ccccc3)NC(=O)[C@@H]([C@@H](C)O)NC2=O)cc1 (stereo in doubt; 31) = 0.975
CC(C)NCc1ccc(C[C@@H]2NC(=O)[C@@H](Cc3c[nH]c4ccccc34)NC(=O)[C@@H]3CCC(=O)NCCCC[C@H](NC(=O)[C@H](Cc4ccccc4)NC(=O)[C@H]([C@@H](C)O)NC2=O)C(=O)N[C@@H](CO)C(=O)N[C@H](C(N)=O)CSSC[C@H](NC(=O)[C@@H](N)Cc2ccc(O)cc2)C(=O)N[C@@H](CCCCN)C(=O)N[C@@H](Cc2ccccc2)C(=O)N3)cc1 = 0.181

1: CC(C)[C@H](NC(=O)[C@H](CCCCN)NC(=O)[C@@H](Cc1c[nH]c2ccccc12)NC(=O)[C@H](Cc1ccc(O)cc1)NC(=O)[C@@H](Cc1ccc(Cl)cc1)NC(=O)[C@@H](N)Cc1ccccc1)C(=O)N[C@@H](Cc1ccccc1)C(=O)N[C@H](C(N)=O)[C@@H](C)O
2: C[C@H](c1ccc2ccccc2c1)[C@@H]1NC(=O)[C@H](Cc2ccc(O)cc2)NC(=O)[C@H](Cc2ccccc2)NC(=O)[C@H](N)CSSC[C@@H](C(=O)O)NC(=O)[C@H](Cc2ccccc2)NC(=O)[C@H]([C@@H](C)O)NC(=O)[C@H](CCCCN)NC1=O
### Prompt # compare IC50 for 1 vs 2 ; return the one with the smaller value Record your answer as the label of the chosen record.
### Response 2
